For each entry below, report its Kd value.
# target.desc: T1, hK1 (human tissue kallikrein 1), recombinant (human, UniProt P06870 25-262)
# T1 construct: Expressed in P. pastoris from KLK1 cDNA and purified; enzymatically active; also called KLK1; Recombinant (Pichia) Kallikrein
# assay.comment: SPR
Numeric answer only, unit nM assumed.

Kd in this record for M0098-E01 (Fab, V domains shown) VH: EVQLLESGGGLVQPGGSLRLSCAASGFTFSMYGMTWVRQAPGKGLEWVSGISPSGGRTYYADSVKGRFTISRDNSKNTLYLQMNSLRAEDTAVYYCAKHRRDYVWWTYGMDVWGQGTTVTVSS VL: DIQMTQSPATLSLSPGERATLSCRASQSVSGFLAWYQQKPGQAPRLLIYDASNRATGIPARFSGSGSGTDFTLTITRLEPEDFAVYYCQQYGDSSPITFGPGTRLEIKR : 6.8

Measured Kd, M0125-C04 (Fab, V domains shown) VH: EVQLLESGGGLVQPGGSLRLSCAASGFTFSHYVMDWVRQAPGKGLEWVSSIYPSGGWTRYADSVKGRFTISRDNSRNTLYLQMNSLRAEDTAVYYCARRGQWLVLDYWGQGTLVTVSS VL: AQSELTQPASVSGSPGQSITISCAGTSSDLGGYDYVSWYQQYPGKAPKLIIYQVGRRPSGVSNRFSGSKSGNTASLTISGLQTEDEADYYCSSYTSSRTRVFGGGTRVTVLG : 11.2

Looking up M0122-H04 (Fab, V domains shown) VH: EVQLLESGGGLVQPGGSLRLSCAASGFTFSRYAMAWVRQAPGKGLEWVSSIGSSGGVTKYADSVKGRFTISRDNSKNTLYLQMNSLRAEDTAVYYCAAPRGRYYYDSSGYYYGGVFDYWGQGTLVTVSS VL: AQYELTQPRSVSGSPGQSVTISCTGTSSDVGGFNYVSWYQQHPGKAPKLMIYDVSKRPSGVPDRFSGSKSGTTASLTISGLQADDEADYYCCSYTGNYTYVFGTGTKVTVLG , I found its Kd recorded as 11.8
